Source: BindingDB's records for patent US20250026742

Consider the following pIC50 values measured on Serine/threonine-protein kinase ATR (Homo sapiens).
Sequence (Q13535 whole entry): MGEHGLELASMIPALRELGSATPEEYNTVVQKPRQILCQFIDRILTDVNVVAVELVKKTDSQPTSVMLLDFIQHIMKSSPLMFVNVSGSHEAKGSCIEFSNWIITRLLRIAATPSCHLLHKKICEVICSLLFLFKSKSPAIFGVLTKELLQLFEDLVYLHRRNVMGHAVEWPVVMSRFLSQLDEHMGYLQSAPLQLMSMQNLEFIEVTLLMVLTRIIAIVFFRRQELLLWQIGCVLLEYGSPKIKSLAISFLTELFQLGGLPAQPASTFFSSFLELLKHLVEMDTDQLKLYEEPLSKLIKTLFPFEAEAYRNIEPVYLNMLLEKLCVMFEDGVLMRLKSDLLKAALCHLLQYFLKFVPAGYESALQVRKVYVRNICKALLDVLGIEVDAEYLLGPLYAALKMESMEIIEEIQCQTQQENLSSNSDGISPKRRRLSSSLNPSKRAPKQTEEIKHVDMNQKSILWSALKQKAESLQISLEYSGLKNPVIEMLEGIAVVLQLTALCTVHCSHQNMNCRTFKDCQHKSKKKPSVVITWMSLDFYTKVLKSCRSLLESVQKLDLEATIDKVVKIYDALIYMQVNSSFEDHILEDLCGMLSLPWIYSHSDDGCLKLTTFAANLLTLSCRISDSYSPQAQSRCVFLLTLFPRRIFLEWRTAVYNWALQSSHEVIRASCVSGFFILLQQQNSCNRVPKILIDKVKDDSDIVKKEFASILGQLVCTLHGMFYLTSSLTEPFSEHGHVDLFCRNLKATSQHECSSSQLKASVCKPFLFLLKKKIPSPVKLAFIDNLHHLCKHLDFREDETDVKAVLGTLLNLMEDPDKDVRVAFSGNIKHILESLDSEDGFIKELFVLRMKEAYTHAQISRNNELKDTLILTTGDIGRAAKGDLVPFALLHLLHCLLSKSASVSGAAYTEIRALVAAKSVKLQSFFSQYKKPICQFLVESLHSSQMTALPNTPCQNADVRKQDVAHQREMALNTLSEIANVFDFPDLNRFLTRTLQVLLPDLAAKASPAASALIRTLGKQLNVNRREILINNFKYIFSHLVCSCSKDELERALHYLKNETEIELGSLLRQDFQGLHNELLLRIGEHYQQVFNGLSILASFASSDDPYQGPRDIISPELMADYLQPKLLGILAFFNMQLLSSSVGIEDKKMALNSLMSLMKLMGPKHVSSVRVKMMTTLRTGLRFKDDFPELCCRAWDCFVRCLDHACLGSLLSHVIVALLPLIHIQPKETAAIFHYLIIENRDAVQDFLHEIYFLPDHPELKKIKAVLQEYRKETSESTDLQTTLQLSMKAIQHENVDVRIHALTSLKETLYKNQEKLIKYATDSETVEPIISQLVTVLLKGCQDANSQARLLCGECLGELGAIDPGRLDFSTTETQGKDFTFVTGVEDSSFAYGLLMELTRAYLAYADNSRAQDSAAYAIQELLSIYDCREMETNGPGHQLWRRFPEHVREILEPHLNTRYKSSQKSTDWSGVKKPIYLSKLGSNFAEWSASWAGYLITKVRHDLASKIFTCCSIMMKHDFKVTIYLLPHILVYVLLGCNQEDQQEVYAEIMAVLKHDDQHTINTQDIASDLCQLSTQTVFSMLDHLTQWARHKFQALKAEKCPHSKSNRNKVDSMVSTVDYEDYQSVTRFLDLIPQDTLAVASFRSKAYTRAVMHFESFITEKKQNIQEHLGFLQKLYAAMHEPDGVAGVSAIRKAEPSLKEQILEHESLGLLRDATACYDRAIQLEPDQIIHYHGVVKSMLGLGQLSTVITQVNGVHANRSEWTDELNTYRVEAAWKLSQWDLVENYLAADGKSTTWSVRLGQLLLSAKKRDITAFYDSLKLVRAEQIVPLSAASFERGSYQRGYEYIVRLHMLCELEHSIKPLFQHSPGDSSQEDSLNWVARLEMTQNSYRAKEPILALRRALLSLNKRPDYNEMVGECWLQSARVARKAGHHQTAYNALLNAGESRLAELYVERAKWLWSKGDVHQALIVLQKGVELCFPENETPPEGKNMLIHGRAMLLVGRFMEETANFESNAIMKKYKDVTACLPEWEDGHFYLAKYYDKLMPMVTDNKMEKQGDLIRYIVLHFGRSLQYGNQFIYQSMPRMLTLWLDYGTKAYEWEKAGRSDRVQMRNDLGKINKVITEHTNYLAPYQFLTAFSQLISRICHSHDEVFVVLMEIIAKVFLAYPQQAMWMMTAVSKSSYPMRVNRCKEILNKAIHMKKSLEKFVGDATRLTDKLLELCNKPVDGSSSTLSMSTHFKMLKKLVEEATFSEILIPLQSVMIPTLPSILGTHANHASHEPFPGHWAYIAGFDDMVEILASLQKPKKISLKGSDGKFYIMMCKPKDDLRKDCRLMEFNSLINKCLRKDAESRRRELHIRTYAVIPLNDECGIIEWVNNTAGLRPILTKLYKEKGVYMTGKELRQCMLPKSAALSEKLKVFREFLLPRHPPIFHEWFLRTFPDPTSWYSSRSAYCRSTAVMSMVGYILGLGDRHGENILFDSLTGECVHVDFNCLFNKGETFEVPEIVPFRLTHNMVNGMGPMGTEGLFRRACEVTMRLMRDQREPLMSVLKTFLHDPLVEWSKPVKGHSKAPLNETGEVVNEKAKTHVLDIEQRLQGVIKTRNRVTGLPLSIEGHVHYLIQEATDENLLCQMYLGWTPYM
By convention, pIC50 is the negative base-10 log of a molar concentration.

These solved cases illustrate the format of a correct answer.
Molecule | pIC50
CC(C)S(=O)(=O)c1ccc(-c2cnc(N)c(-c3cc(-c4ccc(CNC(N)=O)cc4)no3)n2)cc1 [US20250026742, Example 9] | 8.74
CN=S(C)(=O)c1ccc(-c2cnc(N)c(-c3cc(-c4ccc(CNC(=N)N)cc4)no3)n2)cc1 (stereo not drawn) [US20250026742, Example 12] | 8.60

Report value only: pIC50, Serine/threonine-protein kinase ATR (Homo sapiens), CC(=N)Nc1ccc(-c2cc(-c3nc(-c4ccc(S(=O)(=O)C(C)C)cc4)cnc3N)on2)cc1 [US20250026742, Example 29]
8.51
